Origin of the recorded values: the supplement of paper PMC10126150

system: ATP; experiment: switch fluorescence ratio, 500 uM ATP over buffer (Cy3 cluster intensity, sum of 5 cycles each) (fold (ratio)); higher = stronger signal-on switching upon ATP binding; sequences stand for … in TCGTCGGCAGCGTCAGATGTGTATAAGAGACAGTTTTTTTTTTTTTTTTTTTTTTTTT…TC; conditions: aptamer strand: ATP DNA aptamer (quencher-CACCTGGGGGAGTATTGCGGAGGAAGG + anchor), 100 nM annealed; ATP concentration: 500 uM;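 further: ATP exposure 15 min at 22 °C before imaging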
Would you kindly list switch fluorescence ratio for each of these sequences?
Format: numeric value only, no unit, no commentary.

Using the record for "TCGAAAACAG" , report its switch fluorescence ratio.
0.961

Input "CCATTAATCT"
1.34

Input "ATGGGTTTCT"
0.989

Input "TTTTGAATCT"
0.953

Input "ATGGGAGAAG"
0.958

Input "GAGCCTTTGT"
1

Input "GGGGTAGCGG"
0.926

Input "TTGGTGCTTG"
1

Input "GGTTTTAATG"
0.988

Input "AACGTATGTG"
0.937

Input "ATGGCAGTGT"
0.993

Input "CGGGAGCGTT"
1.12

Input "CAGGGGTATA"
1.02

Input "GATTTTCGTA"
0.985

Input "ATTAATCCAT"
0.987

Input "TAGTTAGTGA"
0.986

Input "TTGGGAATTT"
0.975

Input "AAATCTGTCA"
1.03

Input "TTTTATATAC"
1.14

Input "ATAAGACTCT"
0.996

Input "CCTATCCCTG"
1.08

Input "TTTTTCGTGT"
0.975

Input "GACACTAAGG"
1.01

Input "GGTTTAAGAT"
1.03

Input "GATAGGGGTG"
1.03

Input "TGGTTGAATA"
0.998

Input "GCACGGACAT"
1.4

Input "CGGTACCGGG"
1.02

Input "CACTAATTAA"
1

Input "GGTGTATTTG"
0.981

Input "GTGGGGGTTG"
0.976

Input "TCTTTTTTAG"
0.998

Input "GGTTATAGGA"
0.99

Input "TCGGGGTGGG"
1.03

Input "ACATTTTGG"
1

Input "GAATGGGATG"
1

Input "GGGTGGAAAA"
0.997

Input "GATGTGTGTT"
0.973

Input "AAAAAAAGGC"
0.998

Input "AATTGGGCCT"
1.03

Input "TTTACGAAGT"
0.966

Input "GAGGGACTCT"
0.964

Input "GGGGAGGAAA"
0.999

Input "CTTCGGTGGC"
1.01

Input "GTTTGCCATG"
0.998

Input "GATAGAGGGA"
0.999

Input "GACTGTAAGG"
0.997

Input "AACTTTTTGG"
0.99

Input "TTTAGATATT"
0.989

Input "GAACGAAAGG"
1.03

Input "TTAGATTTTT"
1

Input "ATGCGCGGTA"
1.01

Input "AAATTGGGCT"
1.03

Input "GTTTCTGGGG"
0.971

Input "TAGGTCTCAG"
1.03

Input "AATTGCGTTT"
1.01

Input "TTATGGGTAA"
1.03

Input "ACTCATAATT"
1.02

Input "CAAGTCAGTA"
0.991

Input "GGCTAGACGT"
1.03

Input "CTGGGGTATG"
0.985

Input "CTGGGATTAT"
0.976

Input "CGGTGTTGGC"
1.05

Input "AATTGGATGT"
1.01

Input "TCAAGTATCA"
1.02

Input "GGGAGCTGAA"
1.04

Input "AACATTGTTT"
1.01

Input "TGGGGGGGAG"
0.996

Input "AAAACAAATA"
0.997

Input "GCGGATGTCT"
1

Input "GAGGACGGTG"
1.03

Input "ACAATGAGTG"
1

Input "TGACAAAG"
0.978

Input "GGTGGAATCA"
0.982

Input "TTTGCGGAAA"
1.01

Input "AGAATTAGTG"
0.953

Input "TGTTGGAGGT"
1.02

Input "TTTGGATTGG"
0.967

Input "TGGGATTTGT"
0.988

Input "CCAGGGGAGG"
1.11

====

test system: ATP; experiment: switch fluorescence ratio, 500 uM ATP over buffer (Cy3 cluster intensity, sum of 5 cycles each) (fold (ratio)); higher = stronger signal-on switching upon ATP binding; sequences stand for … in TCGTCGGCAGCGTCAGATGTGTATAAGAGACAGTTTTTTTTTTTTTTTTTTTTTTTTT…TC; settings: aptamer strand: ATP DNA aptamer (quencher-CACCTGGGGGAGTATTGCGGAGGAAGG + anchor), 100 nM annealed; ATP concentration: 500 uM;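 further: ATP exposure 15 min at 22 °C before imaging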
property label: switch fluorescence ratio
Format: numeric value only, no unit, no commentary.

Using the record for "GTGAGAATGT" , report its switch fluorescence ratio.
1.02

Input "GAGGGGTCCG"
1

Input "CAGAGAGCGT"
1.01

Input "AGAAGGGTT"
1.02

Input "AGTTTATGCG"
0.979

Input "AGTATTTTTG"
1.01

Input "ATGGCGTCCA"
0.977

Input "CGGGTTTGAA"
0.972

Input "GAGAGGTCGG"
1.01

Input "CTAATTCGAG"
0.992

Input "GAGTGAAGGG"
1.02

Input "TTGTCATTGG"
0.992

Input "ATCTGGACTA"
0.984

Input "CGTAATGGCA"
1.01

Input "AGAATCGAAG"
0.994

Input "TTAGGCGTTC"
0.989

Input "GCAAAGGGGT"
0.996

====

tested on: ATP; test: switch fluorescence ratio, 500 uM ATP over buffer (Cy3 cluster intensity, sum of 5 cycles each) (fold (ratio)); higher = stronger signal-on switching upon ATP binding; sequences stand for … in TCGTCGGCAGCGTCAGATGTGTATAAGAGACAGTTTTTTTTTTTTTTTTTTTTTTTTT…TC; details: aptamer strand: ATP DNA aptamer (quencher-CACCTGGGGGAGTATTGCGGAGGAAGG + anchor), 100 nM annealed; ATP concentration: 500 uM;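 further: ATP exposure 15 min at 22 °C before imaging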
Would you kindly list switch fluorescence ratio for each of these sequences?

Using the record for "CGGGGGCAGG" , report its switch fluorescence ratio.
1.03

Input "GTGGTTTAAC"
1.04

Input "GTTATCACTG"
1.02

Input "TTCCTAGTCT"
1.27

Input "TGCATGGCAA"
1.03

Input "GTTTGGGGAT"
0.972

Input "TTTTGGCGTA"
1.04

Input "CTGGCTAGGT"
0.988

Input "GGTTTGGGTT"
0.998

Input "AATGGGTTTT"
0.976

Input "AGTAACATTT"
0.974

Input "ATAAAGGGTT"
0.994

Input "AAATTAGCGG"
0.987

Input "GCAGACGTTC"
1.01

Input "GACGGACAGT"
1.13

Input "TACGCGATTT"
1.09

Input "CACTTGGGCG"
1.03

Input "TTTAAGAGAT"
0.998

Input "TATTGAGATG"
0.998

Input "TGGAAGTCGG"
0.984

Input "TTTGGTTGAA"
1.03

Input "GGCAGATGAC"
0.967

====

tested on: ATP; test: switch fluorescence ratio, 500 uM ATP over buffer (Cy3 cluster intensity, sum of 5 cycles each) (fold (ratio)); higher = stronger signal-on switching upon ATP binding; sequences stand for … in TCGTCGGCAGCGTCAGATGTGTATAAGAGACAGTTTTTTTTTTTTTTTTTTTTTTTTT…TC; details: aptamer strand: ATP DNA aptamer (quencher-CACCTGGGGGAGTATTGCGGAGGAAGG + anchor), 100 nM annealed; ATP concentration: 500 uM;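 further: ATP exposure 15 min at 22 °C before imaging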
Would you kindly list switch fluorescence ratio for each of these sequences?
Format: numeric value only, no unit, no commentary.

Using the record for "AAGCTGGGGG" , report its switch fluorescence ratio.
0.969

Input "AGGTAGGATT"
1.01

Input "CTAGGGGTTC"
1.01

Input "TTTGTTCGGT"
1.01

Input "TTTGTAAAAT"
0.99

Input "GGTAAAGGAT"
0.991

Input "GTTGTAAAGT"
1.03

Input "TTCGGGTAAG"
0.987

Input "TGGGGTACGA"
1.01

Input "GGGGGGATGA"
0.992

Input "TATTATAGAT"
1

Input "CCTTAAGGCG"
1.02

Input "GGGTCATTCA"
0.992

Input "AAGAAAGGGC"
1

Input "GATAGCTTTT"
1.05

Input "AGCATTAATT"
0.988

Input "GAATATGGGT"
0.995

Input "AGAGGGGAT"
1

Input "TCGGTGTTTT"
1.05

Input "TTTCACGAGC"
0.993

Input "GCCATGGCTT"
1.01

Input "AATTTACGTG"
1.06

Input "TACGTGTTTT"
1

Input "TTAAAAAAAA"
1.16

Input "CGTATGGGTG"
1.02

Input "TAGTTTGAAC"
1.01

Input "GCGTTTAAGA"
1.04

Input "TGCGGAGGTT"
1.02

Input "GTGTGAGTGC"
1.06

Input "TTACATGTAG"
1.04

Input "CGTGCCGTGG"
0.995

Input "TCTCTTCAGC"
1

Input "TCTTCCGGTG"
1.68

Input "GATGAAGGTA"
0.991

Input "AATTGCACGG"
1.04
